# protocol_notes: soluble on expression in E. coli; label from the status in PepcDB or PDB records
readout_label: soluble on expression in E. coli

MSLCQEKEQDIQKEISYAEKHNNQRRIEGLNKALSEVRANCTDSKLRAEHQKKIAEQKEEVAERQRDLAEAKAKGDADKIDKRERKLAEAQDELKKLEHHHHHH ... not soluble
GPGSMPAPSLATRHFTFTHEVPADDVFELEENAPRRVPIACVTLQMVSFNRRCFWFHIAMTREGFSAPPPPFGACAVSFSGVSGDSAATTLVDDTALPQLGFKEAQHEVGVGAPNPQAVFADSLARRLSRRLEREFTSGVAVYVACGIIGENQSDLLGTPAGYGSEVTRRFGAEVFKHAMDLICEEGLGKATAA ... not soluble
MGSDKIHHHHHHMWQAISRLLSEQLGEGEIELRNELPGGEVHAAWHLRYAGHDFFVKCDERELLPGFTAEADQLELLSRSKTVTVPKVWAVGADRDYSFLVMDYLPPRPLDAHSAFILGQQIARLHQWSDQPQFGLDFDNALSTTPQPNTWQRRWSTFFAEQRIGWQLELAAEKGIAFGNIDAIVEHIQQRLASHQPQPSLLHGDLWSGNCALGPDGPYIFDPACYWGDRECDLAMLPLHTEQPPQIYDGYQSVSPLPADFLERQPVYQLYTLLNRARLFGGQHLVIAQQSLDRLLAA ... not soluble

###

# protocol_notes: soluble on expression in E. coli; label from the status in PepcDB or PDB records
readout_label: soluble on expression in E. coli

Solved entries:
KLDKIDNKNRRIRKKLFLGEFAILGFEISCETDINDFDRYDAFVDDFIDYIDTLGLCFGGGGLELFEGFLCSTERYGSATEEQKAQVVAWLEARPEVKSAKAGDLLDANY ... not soluble
MTPLVKDIIMSSTRMPALFLGHGSPMNVLEDNLYTRSWQKLGMTLPRPQAIVVVSAHWFTRGTGVTAMETPPTIHDFGGFPQALYDTHYPAPGSPALAQRLVELLAPIPVTLDKEAWGFDHGSWGVLIKMYPDADIPMVQLSIDSSKPAAWHFEMGRKLAALRDEGIMLVASGNVVHNLRTVKWHGDSSPYPWATSFNEYVKANLTWQGPVEQHPLVNYLDHEGGTLSNPTPEHYLPLLYVLGAWDGQEPITIPVEGIEMGSLSMLSVQIGLEHHHHHH ... soluble
MGSDKIHHHHHHMRVAPAYGKIALLISVSFSHGRHSVQDKNFDALAGKFAKNIYGTPKGEVRAAVLWRDISQAMTQLPEGPLRILDAGGGFGFFSQKLAKLGHSVTLCDISSEMLALGQAQITEYENNSGEKLDITLLHAPIQSLTREELGQFDLILCHAVAEWLSDAKQTLAGLTQLLKPQGLFSLMFYNKEAMRFHSLISGNFDYVAADFKVKKKVGLTPSYPLYIDDVRGWVSDWQMELVTASGVRVIHDYLKTHQPPNSDFSQLLEMELQYSTHPAYIGLGRYVHFITRWQR ... not soluble
MGHHHHHHSHMPKGIALALGLNAVDPKHYGGWAGKLNACEADAEDMAAIAAERGFAVTTLMTKAATRAKVIDAIGKAAKALGKGDIFMLSYSGHGGQVPDTSNDEPDGVDETWCLFDGELIDDELYALLGKFAAGVRVLVFSDSCHSGTVVKMAYYNGTTAARSAGPDEGEIRYRAMPQSVAMRTYRANREFYDTIQQKTKKVDLADVKASILLISGCQDNQLSQDGAFNGAFTGQLLRVWKNGLYKGSYRSFHKAIVRRMPPDQTPNFFTAGTPDPAFLKQRPFTV ... soluble
MKKVLLIVISILFGSVLVGCQMNESNKTQDKIQSITGSVAYRERIALPDNAVVTVYLQDVSLADAPATVIAKQNFITNGMQVPLEFNLAYDSRKIKASHRYSVSARIEVDGKLRFITDTHYGVITDPEATKHVPMMLIGVHGE ... not soluble

For the next question, use this sequence.
Lookup: Entry under review: MSLIKLVAIDLDGTLLNSQKEISLRNKQALMAAKQAGVKVVICTGRPLAAIGPYLEELGLQDEGDYSITFNGGLVQKNDTGAIIEKTLMPLEAIHELYQLATTLNMPFDVLSDEVVMQLPSAPNYPSIYSSLNKLLTFESYKLEELTPNRIYNKVVVAIDEAYLNERIKEIPASFYERFEIIKTRNNLLEFMPKGITKAYGISLLAKDLGIRAEEIMTLGDEENDLPMIEYAGLGVAMANAIPLVKEAADVVTDTNDQDGVAKAVEKYILTPLEGGEGHHHHHH . Reported soluble on expression in E. coli?
Found: soluble

###

# protocol_notes: soluble on expression in E. coli; label from the status in PepcDB or PDB records
readout_label: soluble on expression in E. coli

Some sequences with known soluble on expression in E. coli results, for comparison:
MSLEQPGFKLRAVTIHFEASADVDSIEDAVFKAKEAIDRLTAEKGVEVWSLRAVLTPGESVADSLGRVAELEPLVEEEGVFINLGLHNASADDWEAVSGIVESGFFLSFALENGTWEEARSYSKLLHRLADKSPDLAVHIGFNPLGTHILTPYFPLATSPGEQRTVTVALLYPRYLLESFRKGGLQAVIDSMVDAAQLSGEYGKAVAKDVEGSFAGVDLSISPWMEESSLALVEEVGGVRLPEPGFAYGLRLVNEAIAAAASKTGYAVGFNEVQLPVAEDSKLKVRVAELETSARDLLRLSGVCLAGLDMAVIPASLDGVAGLLLEARAYSRAKGSIVGVRLIPLDGVEPGDEVFLKRFGEVPVIPIEGHHHHHH ... not soluble
GSKCKCSRKGPKIRYSDVKKLEMKPKYPHCEEKMVIITTKSVSRYRGQEHCLHPKLQSTKRFIKWYNAWNEKRRVYEE ... soluble
MQGFELEDLTLWLIRDAGEDQMWIDRWAISYPVVQMSEASAGQSIGEWQAGLQTAFERIRGKYVAVVAHGAGAAAFLAWLYQADILTRKKIANIILVPQRPDIFPDDAEHAFQRVRCPCRAALVVPEHGGVPHGWAQKQADLWNARLLVSPHSGSLNGMLGGWQWGMKLMQEMLLA ... not soluble
MSLGKEEEYRITNVKIFKDTPVWELALAVKNEKTRTIEKLAKENPELLNYQEPKYGATLLLWAVGMEKYKSAEALLKCGADPNIASTVDGMTPLYLAAGFSWIDNYAKKDPKFVKLLLKYNADPNITYGGNAIIEPGTSPLMNSIRCGIEKTKALVEAGAYINYKTKSGTTAAIKALLAGQNATLEALEYAHYLIVEKKAKVTDPYYPWLVYEENNIQELYPVDILRRWVYPLDSEEYRIKMEIVEEFARQGVNYWDTEIDKYTLEQIKKLYPDTWEEYIKRYEGHHHHHH ... soluble
MAHHHHHHMEDNDWTGHHSGDGDQNEGMMLNRMEAVMDEVEKLRNLNGALTLELQLAEKKLVIRHERIETLKHGLRQECAAKQELQRTLEAERVCHQAQLQDARNDALHWRQLYDDLLNNSHTRSRKHNGRHRNEHRSSTPTLEAALTSREPSSLADSPVAMGHGIIVKPIRGGGQKELN ... soluble

Now examine the next entry.
Lookup: What value of soluble on expression in E. coli has been reported for the following sequence? MCLDQVMEGSATVHMAAPPDKIWTLIADVRNTGRFSPETFEAEWLDGATGPALGARFRGHVRRNGIGPVYWTVCEPGREFGFAVLLGDRPVNNWHYRLTPTADGTEVTESFRLPPSVLTTVYYRVFGGWLRQRRNIRDMTKTLQRIKDLVEAG
Found: soluble

###

# protocol_notes: soluble on expression in E. coli; label from the status in PepcDB or PDB records
readout_label: soluble on expression in E. coli

Some solved cases for reference:
MRWEELSEQPCSLARVLAILGDRWTLLVLRDCFLGVRRFDDFERSLGVTRHVLADRLKRLVEAEILAKVPYQERPLREEYRLTEKGMELYPAILSLVNWGDRHLAGVEGPPLEHVHKHCGQHMHGVLVCSECGEPLHARDVTVREGLFWKGRLLRRG ... not soluble
MPPCPPQQNRNRLSQLPVGELGEMELTWQEIMSITELQGLNVPSETSFEPQAPTPYPGPLPPPTYCPCSIHPDAGFSLPPPSYELPASTPHVPELPYSYGNVAIPVSKPLTLSGLLNEPLPDHLALLDIGLPVGQPKPQEDPESDSGLSLNYSDAESLELEGMEAGRRRSEYADMYPVEYPYSLMPNSLAHPNYTLPPTETPLALESSSGPVRAKPAVRGEAGSRDERRALAMKIPFPTDKIVNLPVDDFNELLAQYPLTESQLALVRDIRRRGKNKVAAQNCRKRKLETIVQLERELERLSSERERLLRARGEADRTLEVMRQQLAELYHDIFQHLRDESGNSYSPEEYVLQQAADGAIFLVPRGTKMEATD ... soluble
MTTLTLAELATITGGELFGDPTALVSAVAPMDKAQLGHVTFLSNPKYSKHLGDCKATVIMVKTSERELCPSNALVVADPYVAFAKVAQALDSTPSPAHGIAPSAVIAEDAKLGHNVSIGANAVIESGVQLGDNVVIGAGCFIGKQARLGDNTKLWANVTIYHKVEIGSDCLIQSGTVIGADGFGYANERGEWIKIPQLGSVRIGDRVEIGACTTIDRGALDDTVIEDNVIIDNQLQIAHNVHIGYGSALAGGTVIAGSTRIGKYCIIGGASVINGHIEIADGVTITGMGMVMRSIEEKGMYSSGIPLQTNKEWRKTAARVHRIDDMHKRLKALEKLLEQSDTVQPDNSQAE ... not soluble
MSLKTIAINQYGSADEFTMVDMPTTEPQADEVQVAIHAFSLNPMDIAGRMGALSSPFTDLWAFPLVLGWDFAGVITKMGKAVTGFNIGDAVFGSAAPAHAANNGTYGEFITVNTKELAHLPAGLSFDQAAALPIAGLTAYYGMKHNLKLQSGQKILVQGGAGGVGLFAIQIAKAFGAYVATTASANHRDLLTRLGADEVIDYHETDPAAVLHDYDAVFDTVGDIDTGLKVLKADGQLATIAGQPTDEQQHDQQKKVAFQFTQGSSQDLADLAQLVVSGQVKLTVATLPFSVANVIKGHRSIESRHTTGKIVIHVTEGHHHHHH ... not soluble
MNRQIPKVPDAIELEYDLDEPPQKVWRAISIPAFREHWLPKEALAQPEAIKVSPGREVCYRLREDTPPFLESTVTFQIASNDRGGTSLRIIHDLPAIKSGRMTKAAANHNGSPIKLAALEHHHHHH ... not soluble

Lookup: Which value of soluble on expression in E. coli has been reported for GVGRLDDLKRSPLFQNVPEDAMREALKVVTERNFQPDELVVEQDAEGEALHLVTTGVVRVSRVSLGGRERVLGDIYAPGVVGETAVLAHQERSASVRALTPVRTLMLHREHFELILRRHPRVLWNLAEMLARRVTFLNDELIAFGQNTEAALTHVFANLYRQRLAAGVPQPEVLPLGTQDIMARTSSSRETVSRVLKRLEAHNILEVSPRSVTLLDLAALEALSFEGAETD in the records?
Found: soluble

Lookup: Next up: MLLSRICRFRMLTRFTRLRPILQLRYLAQNSHIEEEYFEELEPTGIISSHETSQEPPKRTGFRSQNLSEDADFVENVVGALTDQRAKDVFVVKSEETEMTPYTHKIICSAFNSRQASAISENLRSLLKIDGVSNGSMSHARRSTKRSNGWYVSEVERVQVHVMSEECREKYDLEAIWAGDDRILDEIDEEKQKILLPPRR
Found: not soluble

Lookup: Also TKKNELNKAHVTIALTNPKTPTNVGAVIRAAGCYQADQIIYNGNRYAQAAKYHKKTLQTDTFNMQDKIPLLQVESFIGIKDSLESIPSSAKIICVDLVEGATPLPHFIHPPEAVYIFGPEDSSVKQEVIDIADDVVYVPTVGCMNLAATVNVLLYDRLAKSL , if possible.
Found: not soluble

Lookup: And for MAHHHHHHMLSTNISSNLNNTLVNITGRENKGEWLLYPQSNYEFNIDEKLKNKFIIDKEKCKKRINAYNKNGIRNSVLAIILCHRYEYPHLLLLQHIESQKYYLLNGKYKTWEKPKEVLKKKLQKYINKIKDIHFTPAQINKEQEETVEIGDFLGEWWRTQFNSVFLPYLPAHISRPKEYIRLYQVILSPKCIFHLPPGFTLKAIPLFDLNNCGLAISGLSSILSRFKLHCMVQEQDAEN ?
Found: not soluble

Lookup: Next sequence: MQYHEPVWIPAHLTTGEPDSFAAFTLEERLPAILDNLANHADARTDQALQQLAVEIREGEITPLPPVILGLFDQVIKPYTGRRWTDMPFLTVELYFYARILLAFGHTATTLVDPFHPIKNTVSLQAIESLTTMTGYCDSDCDITGLLRWSMTGNTADLSQQVVTDAGQISLLVDESYVAGGLFDSGLNRIDFVFDNAGMDVLTDLLLILRISRHCSRIVAHVRPWPMFVSDVTMTDMKYLIRKLVTSSIPAAKKLGEDITQLLHQNRLIFRSSSALGLPVCFCEEEALTRETFENTELVIFKGDLNYRYFVGDRRWPHTMEKRYFFERFSQPAICLRTLKSEVLVGLPADIATRTLHLQPDWLTSGRYGIIQVFAHMAGDPNSLEHHHHHH
Found: not soluble

Lookup: Follow-up item: MGHHHHHHSHLKDNRVVTMEVEARNLDKKDFLGKSDPFLEFFRQGDGKWHLVYRSEVIKNNLNPTWKRFSVPVQHFCGGNPSTPIQVQCSDYDSDGSHDLIGTFHTSLAQLQAVP
Found: not soluble

Lookup: Let us now turn to MDYIKGIAFDLYGTLFDVHSVVGRCDEAFPGRGREISALWRQKQLEYTWLRSLMNRYVNFQQATEDALRFTCRHLGLDLDARTRSTLCDAYLRLAPFSEVPDSLRELKRRGLKLAILSNGSPQSIDAVVSHAGLRDGFDHLLSVDPVQVYKPDNRVYELAEQALGLDRSAILFVASNAWDATGARYFGFPTCWINRTGNVFEEMGQTPDWEVTSLRAVVELFETAAGKAEKG
Found: soluble
